method-notes: Pharmacokinetic study of YCHD components and phase II metabolites in normal rats (UHPLC-MS/MS, sulfatase enzymolysis)
Format: in vivo, rat
test-settings: rat, in vivo; Control group (normal rats), single oral YCHD 12 g/kg, plasma
Measured Tmax, listed per entry for reference.
Output spec: scalar in h, unitless text.

# compound, unit-tag, Tmax
data = [
    ("O=C(O)C1=CO[C@@H](O[C@@H]2O[C@H](CO)[C@@H](O)[C@H](O)[C@H]2O)[C@@H]2C(CO)=CC[C@H]12", "h", 4.4),
]

Could you now look at the following compound, please?
Task item: // fetch Tmax given entry COC(=O)C1=CO[C@@H](O[C@@H]2O[C@H](CO)[C@@H](O)[C@H](O)[C@H]2O)[C@@H]2C(CO)=CC[C@H]12 [Geniposide]
Reply: 0.3

====

method-notes: Pharmacokinetic study of YCHD components and phase II metabolites in ANIT-induced cholestatic rats (UHPLC-MS/MS, sulfatase enzymolysis)
Type: in vivo, rat
test-settings: rat, plasma, po, 12 g/kg
endpoint-label: Tmax (h)
Give your result in h as a bare value.

# compound, Tmax, h
measured = [
    ("O=C(O)C1=CO[C@@H](O[C@@H]2O[C@H](CO)[C@@H](O)[C@H](O)[C@H]2O)[C@@H]2C(CO)=CC[C@H]12 [Geniposidic acid]", 4),
]

Pending compound:
Task item: Note Tmax for the compound shown: COC(=O)C1=CO[C@@H](O[C@@H]2O[C@H](CO[C@@H]3O[C@H](CO)[C@@H](O)[C@H](O)[C@H]3O)[C@@H](O)[C@H](O)[C@H]2O)[C@@H]2C(CO)=CC[C@H]12 [genipin-1-β-D-gentiobiodide, Genipin-1-β-D-gentiobiodide]
Reply: 0.25

====

method-notes: Pharmacokinetic study of YCHD components and phase II metabolites in ANIT-induced cholestatic rats (UHPLC-MS/MS, sulfatase enzymolysis)
Type: in vivo, rat
test-settings: rat, plasma, po, 12 g/kg
Below, each of the compounds is paired with its reported Cmax value.
Reply with just the number (in ng/mL).

# compound, Cmax (ng/mL)
records = [
    ("O=C(O)c1cc(O)c2c(c1)C(=O)c1cccc(O)c1C2=O", 422),
    ("CC(=O)c1ccc(O)cc1 [4-hydroxyacetophenone, 4-Hydroxyacetophenone]", 676),
    ("O=C(O)C1=CO[C@@H](O[C@@H]2O[C@H](CO)[C@@H](O)[C@H](O)[C@H]2O)[C@@H]2C(CO)=CC[C@H]12", 1690),
    ("O=C(/C=C/c1ccc(O)c(O)c1)O[C@@H]1C[C@](O)(C(=O)O)C[C@@H](O)[C@H]1O", 78.9),
]

Here is the next item to consider.
Task item: Specify reported Cmax for the compound shown: COC(=O)C1=CO[C@@H](O[C@@H]2O[C@H](CO[C@@H]3O[C@H](CO)[C@@H](O)[C@H](O)[C@H]3O)[C@@H](O)[C@H](O)[C@H]2O)[C@@H]2C(CO)=CC[C@H]12 [genipin-1-β-D-gentiobiodide, Genipin-1-β-D-gentiobiodide]
Reply: 63.9

====

method-notes: Identification of components and metabolites of YCHD in rat plasma, bile, urine and feces (UHPLC/Q-TOF-MS)
Type: in vivo
test-settings: rats, oral YCHD 12 g/kg, urine, feces
Description: After centrifuging at 4000 rpm for 10 min, supernatant plasma was harvested into heparinized tubes and then stored at -20°C for preservation. The rats in the second group (n = 6) were kept individually in metabolic cages to collect urine and feces. […] Subsequently, the rats were orally administered a single dose of YCHD (12 g/kg of body weight). […] For the third group of rats (n = 6), bile duct intubation was implemented, and blank bile samples were collected before administration. […]
endpoint-label: Source (biological samples in which the compound was identified)

# molecule, value-measured
measured = [
    ("Cc1cc(O)c2c(c1)C(=O)c1cc(OS(=O)(=O)O)cc(O)c1C2=O [M7, Emodin-O-SO3]", "Plasma, urine, feces"),
    ("COC(=O)C1=COC(OS(=O)(=O)O)C2C(CO)=CCC12 (stereo not shown) [M3, Genipin-1-O-SO3]", "Bile, urine, feces"),
    ("COC(=O)C1=CO[C@@H](O)[C@@H]2C(CO)=CC[C@H]12 [Genipin]", "Bile, urine, feces"),
    ("O=C(O)C1=CO[C@@H](O[C@@H]2O[C@H](CO)[C@@H](O)[C@H](O)[C@H]2O)[C@@H]2C(CO)=CC[C@H]12 [Geniposidic acid]", "Plasma, urine, feces"),
]

====

# maps each entry to its Vd/F
method-notes: Pharmacokinetic study of YCHD components and phase II metabolites in normal rats (UHPLC-MS/MS, sulfatase enzymolysis)
Assay type: in vivo, rat
test-settings: rat, in vivo; Control group (normal rats), single oral YCHD 12 g/kg, plasma; read-out: Vz/F
Return type: number; implicit unit L/kg.

# compound, unit-tag, value-measured
rows = [
    ("COC(=O)C1=COC(OC2OC(CO)C(O)C(O)C2O)C2C(CO)=CC(O)C12 (centres unmarked) [Scandoside methyl ester]", "L/kg", 62),
]

Continue with the next compound.
Task item: Return Vd/F for the following compound: COC(=O)C1=CO[C@@H](O[C@@H]2O[C@H](CO)[C@@H](O)[C@H](O)[C@H]2O)[C@@H]2C(CO)=CC[C@H]12 [Geniposide]
Reply: 21.1

====

method-notes: Pharmacokinetic study of YCHD components and phase II metabolites in normal rats (UHPLC-MS/MS, sulfatase enzymolysis)
Format: in vivo, rat
test-settings: Sprague Dawley, rat, in vivo; Control group (normal rats), single oral YCHD 12 g/kg, plasma; read-out: CLz/F
endpoint-label: CL/F (mL/min/kg)
The answer is to be given in mL/min/kg; state only the numeric part.

Task item: Give a short answer stating reported CL/F for COC(=O)C1=COC(OC2OC(CO)C(O)C(O)C2O)C2C(CO)=CC(O)C12 (stereo not shown) [Scandoside methyl ester] .
Reply: 184

====

method-notes: Pharmacokinetic study of YCHD components and phase II metabolites in normal rats (UHPLC-MS/MS, sulfatase enzymolysis)
Type: in vivo, rat
test-settings: Control group (normal rats), single oral YCHD 12 g/kg, plasma
Decision: Ka compared against 100 min⁻¹; not below it gives 1.0, below it gives 0.0.

Look over these answered cases.
# molecule, qualitative-label
data = [
    ("O=C(/C=C/c1ccc(O)c(O)c1)O[C@@H]1C[C@](O)(C(=O)O)C[C@@H](O)[C@H]1O", 0.0),
    ("CC(=O)c1ccc(O)cc1 [4-hydroxyacetophenone, 4-Hydroxyacetophenone]", 1.0),
    ("O=C(O)c1cc(O)c2c(c1)C(=O)c1cccc(O)c1C2=O", 1.0),
    ("O=C(O)/C=C/c1ccc(O)c(O)c1", 1.0),
    ("COC(=O)C1=CO[C@@H](O[C@@H]2O[C@H](CO)[C@@H](O)[C@H](O)[C@H]2O)[C@@H]2C(CO)=CC[C@H]12 [Geniposide]", 1.0),
    ("COC(=O)C1=COC(OC2OC(CO)C(O)C(O)C2O)C2C(CO)=CC(O)C12 (centres unmarked) [Scandoside methyl ester]", 1.0),
]

Task item: Evaluate COC(=O)C1=CO[C@@H](O[C@@H]2O[C@H](CO[C@@H]3O[C@H](CO)[C@@H](O)[C@H](O)[C@H]3O)[C@@H](O)[C@H](O)[C@H]2O)[C@@H]2C(CO)=CC[C@H]12 [genipin-1-β-D-gentiobiodide, Genipin-1-β-D-gentiobiodide] : Ka at minimum 100 min⁻¹?
Reply: 0.0

Task item: hey, is Ka for this one >= 100 min⁻¹? `O=C(O)C1=CO[C@@H](O[C@@H]2O[C@H](CO)[C@@H](O)[C@H](O)[C@H]2O)[C@@H]2C(CO)=CC[C@H]12`
Reply: 1.0

====

Reported half-life values follow for various compounds
method-notes: Pharmacokinetic study of YCHD components and phase II metabolites in ANIT-induced cholestatic rats (UHPLC-MS/MS, sulfatase enzymolysis)
Assay type: in vivo, rat
test-settings: rat, in vivo, po, 12 g/kg; read-out: t1/2z
The answer is to be given in h; state only the numeric part.

# compound, unit-tag, half-life
data = [
    ("COC(=O)C1=CO[C@@H](O[C@@H]2O[C@H](CO)[C@@H](O)[C@H](O)[C@H]2O)[C@@H]2C(CO)=CC[C@H]12 [Geniposide]", "h", 5.64),
]

Alright, here's another compound for you.
Task item: Output half-life of COC(=O)C1=COC(OC2OC(CO)C(O)C(O)C2O)C2C(CO)=CC(O)C12 (centres unmarked) [Scandoside methyl ester]
Reply: 11.5

====

method-notes: Pharmacokinetic study of YCHD components and phase II metabolites in normal rats (UHPLC-MS/MS, sulfatase enzymolysis)
Format: in vivo, rat
test-settings: rat; Control group (normal rats), single oral YCHD 12 g/kg, plasma
Excerpt: To explore the pharmacokinetic properties of YCHD following intragastric administration in rats, a rapid and sensitive method involving the use of UHPLC-MS/MS (Agilent 6460 series, Agilent Technologies, Santa Clara, CA, United States) was developed and validated for the simultaneous quantification of 10 active components of rat plasma. […]
endpoint-label: log10 Cmax (log10 of the value in ng/mL)
Values below are the log10 of the recorded Cmax, with ng/mL as the unit.

# compound, endpoint-label, value-measured
measured = [
    ("O=C(O)c1cc(O)c2c(c1)C(=O)c1cccc(O)c1C2=O", "log10 Cmax", 3.48),
]

Let's switch to this compound now.
Task item: Fill in log10 Cmax for record `O=C(O)C1=CO[C@@H](O[C@@H]2O[C@H](CO)[C@@H](O)[C@H](O)[C@H]2O)[C@@H]2C(CO)=CC[C@H]12`
Reply: 2.65
